TARGET: T1, secretory phospholipase A2 (sPLA2) (Homo sapiens, UniProt P14555 P14555:21-144)
T1 sequence: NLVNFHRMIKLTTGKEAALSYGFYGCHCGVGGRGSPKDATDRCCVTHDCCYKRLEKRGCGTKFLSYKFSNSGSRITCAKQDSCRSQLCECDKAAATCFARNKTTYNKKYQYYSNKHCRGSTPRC
ASSAY_COMMENT: filter; biphasic, Kd2 43 nM, mole fraction 0.25; TBSC, 37 C
MEASUREMENT_CONTEXT: tags: supplied by Eli Lilly
Method: The nitrocellulose filter partitioning method was used as described in SELEX Patent Applications to determine the affinity of RNA ligands for sPLA_2 and for other promins. […] The filters were air-dried and counted in a Beckman liquid scintillation counter without fluor. The dissociation constants for representative members of families I–VI, orphan and other ligands were determined by nitrocellulose filter binding experiments and are listed in Table III. […]
pKd: −log10 of the molar value.

- BINDER: "1 (orphan) (ssRNA) RNA: GGGAGCUCAGAAUAAACGCUCAAGCCGAACCGAAUGGAGGUGGAGGGAUUGCGUUCGACAUGAGGCCCGGAUCCGGC"
  pKd: 8.85
